Overview of reported MIC across a group of compounds:
- Tested on: INH-resistant Mtb clinical isolate with katG S315T mutation
- Assay type: cell-based, Mycobacterium tuberculosis
The response must be a number in µM with no trailing unit.

Some solved entries appear below for comparison.
// query MIC value for entry CCOC(=O)C1CCN(c2ccc(C=NNC(=O)c3ccncc3)cc2)CC1
25

// query MIC value for entry O=C(NN=Cc1ccc(N2CCN(c3ncccn3)CC2)cc1)c1ccncc1
25

Return reported MIC; argument: CN1CCN(c2ccc(C=NNC(=O)c3ccncc3)cc2)CC1
25

Query (compound): COc1ccc(N2CCN(c3ccc(C=NNC(=O)c4ccncc4)cc3)CC2)cc1 ; field requested: MIC
100

# get_value(readout='MIC', item= O=C(NN=Cc1ccc(N2CCN(c3ccccn3)CC2)cc1)c1ccncc1 )
50

Give the measured MIC of NNC(=O)c1ccncc1 [INH, isonicotinic acid hydrazide, reference compound] .
6.25

// MIC lookup, key: O=C(NN=Cc1ccc(N2CCN(C3CCCCC3)CC2)cc1)c1ccncc1
12.5

Continue with the next compound.
# query: MIC of entry NC(=O)C1CCN(c2ccc(C=NNC(=O)c3ccncc3)cc2)CC1
50

* * *

- System: INH-resistant Mtb clinical isolate with inhA promoter mutation
- Assay type: cell-based, Mycobacterium tuberculosis
ENDPOINT_LABEL: MIC
# answer = value followed by unit

Recorded results for 7 compounds are shown here.
Provide value of MIC for this record tested with INH-resistant Mtb clinical isolate with inhA promoter mutation: O=C(NN=Cc1ccc(N2CCN(C3CCCCC3)CC2)cc1)c1ccncc1
0.78 µM

Give the reported MIC for O=C(NN=Cc1ccc(N2CCN(c3ncccn3)CC2)cc1)c1ccncc1 (system: INH-resistant Mtb clinical isolate with inhA promoter mutation).
3.12 µM

Give recorded MIC with INH-resistant Mtb clinical isolate with inhA promoter mutation for the following compound: CN1CCN(c2ccc(C=NNC(=O)c3ccncc3)cc2)CC1
1.56 µM

State its MIC on INH-resistant Mtb clinical isolate with inhA promoter mutation: NC(=O)C1CCN(c2ccc(C=NNC(=O)c3ccncc3)cc2)CC1
1.56 µM

Return MIC measured with INH-resistant Mtb clinical isolate with inhA promoter mutation given this compound: COc1ccc(N2CCN(c3ccc(C=NNC(=O)c4ccncc4)cc3)CC2)cc1
25 µM

Could you share what MIC was measured for O=C(NN=Cc1ccc(N2CCN(c3ccccn3)CC2)cc1)c1ccncc1 , tested on INH-resistant Mtb clinical isolate with inhA promoter mutation?
1.56 µM

Notebook: pull reported MIC for INH-resistant Mtb clinical isolate with inhA promoter mutation, entry CCOC(=O)C1CCN(c2ccc(C=NNC(=O)c3ccncc3)cc2)CC1
1.56 µM

// moving on: another record for MIC
Hi! What's the reported MIC for NNC(=O)c1ccncc1 [INH, isonicotinic acid hydrazide, reference compound] on INH-resistant Mtb clinical isolate with inhA promoter mutation?
1.56 µM
